TGT: human glucagon receptor (Homo sapiens, UniProt P47871)
Construct: expressed in transfected cells; host or cells: BHK (baby hamster kidney) cells
METHOD_SUMMARY: Glucagon Binding Assay (III)
MEASUREMENT_SETUP: BHK cell membranes, WGA SPA beads, 125I-glucagon; read-out: Glu Bd Assay (III) IC50
ASSAY_ENDPOINT: IC50 (nM)
Answer with a number only, understood to be in nM.

// below: answered molecules
>>> value_observed("CC(C)(C)C1CCC(N(Cc2ccc(C(=O)NCCC(=O)O)cc2)NC(=O)c2ccc(OC(F)(F)F)cc2)CC1 (stereo not shown)")
61
>>> value_observed("O=C(Nc1nn[nH]n1)c1ccc(CN(C(=O)Nc2ccc(S(=O)(=O)C(F)(F)F)cc2)c2ccc(C3CCCCC3)cc2)cc1")
53
>>> value_observed("O=C(Nc1nn[nH]n1)c1ccc(CN(C(=O)NCCc2ccccc2)c2ccc(C3CCCCC3)cc2)cc1")
102
>>> value_observed("CC(C)N1C(=O)c2ccc(NC(=O)N(Cc3ccc(C(=O)NCCC(=O)O)cc3)C3CCC(C(C)(C)C)CC3)cc2C1=O (stereo not shown)")
91
>>> value_observed("O=C(O)CCNC(=O)c1ccc(CN(CCc2ccc(Cl)c(Cl)c2)C(=O)Nc2ccc(OCc3ccccc3)cc2)cc1")
1100

Prompt line: Assign IC50 to the following record: `O=C(Nc1nn[nH]n1)c1ccc(CN(C(=O)Nc2ccc3c(c2)C(=O)N(CC2CC2)C3=O)c2ccc(C3CCCCC3)cc2)cc1`
Response line: 4

Prompt line: For the molecule `CC(C)c1ccc(CN(Cc2ccc(C(=O)NCCC(=O)O)cc2)C(=O)Nc2ccc(OC(F)(F)F)cc2)cc1` , report IC50.
Response line: 1250

---

TGT: cloned human glucagon receptor (Homo sapiens, UniProt P47871)
Construct: expressed in transfected cells; plasma membrane preparation
Sequence (P47871 26-477): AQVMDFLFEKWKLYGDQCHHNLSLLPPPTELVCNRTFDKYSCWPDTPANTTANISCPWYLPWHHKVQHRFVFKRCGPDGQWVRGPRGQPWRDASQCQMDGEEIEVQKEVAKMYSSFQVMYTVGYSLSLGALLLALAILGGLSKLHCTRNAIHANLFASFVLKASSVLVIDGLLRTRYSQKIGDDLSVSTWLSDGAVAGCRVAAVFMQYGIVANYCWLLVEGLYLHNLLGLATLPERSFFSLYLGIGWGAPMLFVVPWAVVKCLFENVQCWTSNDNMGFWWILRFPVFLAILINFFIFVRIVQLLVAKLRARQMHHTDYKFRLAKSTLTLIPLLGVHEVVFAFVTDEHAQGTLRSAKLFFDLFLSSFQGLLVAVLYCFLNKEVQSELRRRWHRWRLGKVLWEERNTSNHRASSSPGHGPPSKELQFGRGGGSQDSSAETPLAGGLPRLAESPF
METHOD_SUMMARY: Glucagon Binding Assay (II)
MEASUREMENT_SETUP: plasma membranes of BHK cells expressing the receptor; read-out: Glu Bd Assay (II) IC50
ASSAY_ENDPOINT: IC50
Hey, just the number and the unit after it is fine.

Here is how some compounds turned out for IC50.
>>> value_observed("C[C@@H](NC(=O)N(Cc1ccc(C(=O)NCCC(=O)O)cc1)c1ccc(C2CCCCC2)cc1)c1ccc2ccccc2c1 [Example 610]")
"0.118 µM"
>>> value_observed("CC(C)(C)[C@H]1CC[C@H](N(Cc2ccc(C(=O)Nc3nn[nH]n3)cc2)C(=O)Nc2ccc(OC(F)(F)F)cc2)CC1 [Example 158]")
"0.007 µM"
>>> value_observed("O=C(O)CCNC(=O)c1ccc(CN(C(=O)Nc2cc(Cl)cc(Cl)c2)c2ccc(C3CCCCC3)cc2)cc1 [Example 232]")
"0.017 µM"

Prompt line: Give a short answer stating reported IC50 for CCCCOC(=O)c1ccc(NC(=O)N(Cc2ccc(C(=O)NCCC(=O)O)cc2)C2CCC(C)CC2)cc1 (stereo not drawn) .
Response line: 0.188 µM

Prompt line: Name the recorded IC50 of the item CC(C)(C)C1CCC(N(Cc2ccc(C(=O)NCCC(=O)O)cc2)C(=O)Nc2ccc(Cl)c(C(F)(F)F)c2)CC1 (stereo not drawn) [Example 236] in your answer.
Response line: 0.029 µM

Prompt line: Recall and state the measured IC50 for CC(C)(C)C1CCC(N(Cc2ccc(C(=O)NCCC(=O)O)cn2)C(=O)Nc2ccc(OC(F)(F)F)cc2)CC1 (stereo not drawn) [Example 612] .
Response line: 0.161 µM

Prompt line: Answer with the recorded IC50 for the compound listed here: CCCCc1ccc(NC(=O)N(Cc2ccc(C(=O)NCCC(=O)O)cc2)C2Cc3ccccc3C2)cc1 [Example 112]
Response line: 0.22 µM

Prompt line: Please give the documented IC50 of O=C(O)CCNC(=O)c1ccc(CN(C(=O)NCc2ccc(Cl)c(Cl)c2)c2ccc(C3CCCCC3)cc2)cc1 [Example 606]
Response line: 0.098 µM

Prompt line: Input CC(C)S(=O)(=O)Cc1cccc(NC(=O)N(Cc2ccc(C(=O)Nc3nn[nH]n3)cc2)c2ccc(C3CCCCC3)cc2)c1 [Example 389] , output reported IC50.
Response line: 0.337 µM

Prompt line: Specify measured IC50 for C[C@@H](NC(=O)N(Cc1ccc(C(=O)Nc2nn[nH]n2)cc1)c1ccc(C2CCCCC2)cc1)c1ccccc1 [Example 598] .
Response line: 0.207 µM

Prompt line: In one line, give reported IC50 of the entry O=C(Nc1nn[nH]n1)c1ccc(CN(Cc2cccc(Cl)c2)c2ccc(C3CCCCC3)cc2)cc1 [Example 585] .
Response line: 0.322 µM

Prompt line: Return IC50 for the following compound: `CCCCOC(=O)c1ccc(NC(=O)N(Cc2ccc(C(=O)NCCC(=O)O)cc2)C2CCCCCC2)cc1`
Response line: 0.217 µM

---

TGT: human glucagon receptor (Homo sapiens)
Construct: expressed in transfected cells; host or cells: BHK (baby hamster kidney) cells
METHOD_SUMMARY: Glucagon Binding Assay (III)
MEASUREMENT_SETUP: BHK cell membranes, WGA SPA beads, 125I-glucagon; read-out: Glu Bd Assay (III) IC50
ASSAY_ENDPOINT: pIC50
// pIC50 is dimensionless: -log10 of concentration (M)

Consider the reported pIC50 for these molecules:
>>> value_observed("CC(C)N1C(=O)c2ccc(NC(=O)N(Cc3ccc(C(=O)NCCC(=O)O)cc3)c3ccc(C4CCCCC4)cc3)cc2C1=O")
7.64
>>> value_observed("O=C(Nc1nn[nH]n1)c1ccc(CN(C(=O)Nc2ccc(Cl)c(C(F)(F)F)c2)c2ccc(OC(F)(F)F)cc2)cc1")
7.27

Prompt line: Tell us which pIC50 value is on record for `COC(=O)CCNC(=O)c1ccc(CN(C(=O)Nc2ccc(OC(F)(F)F)cc2)[C@H]2CC[C@H](C(C)(C)C)CC2)cc1`
Response line: 7.08

---

TGT: cloned human glucagon receptor (Homo sapiens)
Construct: expressed in transfected cells; plasma membrane preparation
METHOD_SUMMARY: Glucagon Binding Assay (II)
MEASUREMENT_SETUP: plasma membranes of BHK cells expressing the receptor; read-out: Glu Bd Assay (II) IC50
Catalogue of pIC50 readings, one per entry.
Please note pIC50 is a logarithmic value: minus log10 of concentration in mol/L. Answer with that number alone.

Before answering, review these 2 worked examples.
>>> value_observed("CCCCOc1ccc(C(=O)NN(Cc2ccc(C(=O)NCCC(=O)O)cc2)C2Cc3ccccc3C2)cc1 [Example 587]")
6.16
>>> value_observed("CC(C)(C)C1CCC(N(Cc2ccc(C(=O)NCCC(=O)O)cc2)C(=O)CNC(=O)OCC2c3ccccc3-c3ccccc32)CC1 (stereo not drawn)")
6.16

Prompt line: Provide pIC50, system cloned human glucagon receptor (Homo sapiens), entry O=C(O)CCNC(=O)c1ccc(CN(C(=O)Nc2cc(Cl)cc(Cl)c2)c2ccc(C3=CCCCC3)cc2)cc1 [Example 605]
Response line: 7.82

Prompt line: Please look at `O=C(O)CCNC(=O)c1ccc(CN(CCc2ccc(Cl)cc2)C(=O)Nc2ccc(OCc3ccccc3)cc2)cc1` and tell me its recorded pIC50 on cloned human glucagon receptor (Homo sapiens).
Response line: 6.40

Prompt line: Provide pIC50, system cloned human glucagon receptor (Homo sapiens), entry CCCCOC(=O)c1ccc(NC(=O)N(Cc2ccc(C(=O)NCCC(=O)O)cc2)C2CCCC(C)C2)cc1 (stereo not drawn)
Response line: 6.56

Prompt line: Supply pIC50 measured with cloned human glucagon receptor (Homo sapiens) for O=C(Nc1nn[nH]n1)c1ccc(CN(Cc2ccc(OC(F)(F)F)cc2)[C@H]2CC[C@H](C3CCCCC3)CC2)cc1 [Example 574] .
Response line: 6.80

---

TGT: human glucagon receptor (Homo sapiens)
Construct: expressed in transfected cells; host or cells: BHK (baby hamster kidney) cells
METHOD_SUMMARY: Glucagon Binding Assay (III)
MEASUREMENT_SETUP: BHK cell membranes, WGA SPA beads, 125I-glucagon; read-out: Glu Bd Assay (III) IC50
pIC50: −log10 of the molar value.
# pIC50 >= 7 gives TRUE, anything below gives FALSE

>>> cat("O=C(Nc1nn[nH]n1)c1ccc(CN(C(=O)Nc2cc(C(F)(F)F)cc(C(F)(F)F)c2)c2ccc(C3CCCCC3)cc2)cc1 [Example 271]")
"TRUE"
>>> cat("CC(C)(C)C1CCC(N(Cc2ccc(C(=O)NCCC(=O)O)cc2)C(=O)Oc2ccc(OC(F)(F)F)cc2)CC1 (stereo not shown) [Example 405]")
"FALSE"
>>> cat("CS(=O)(=O)c1ccc2nc(NC(=O)N(Cc3ccc(C(=O)Nc4nn[nH]n4)cc3)c3ccc(C4CCCCC4)cc3)sc2c1 [Example 616]")
"FALSE"
>>> cat("O=C(Nc1nn[nH]n1)c1ccc(CN(C(=O)Nc2ccc(OC(F)(F)F)cc2)C2CCC(C3CC3)CC2)cc1 (stereo not shown) [Example 604]")
"FALSE"
>>> cat("CC(Oc1cccc(Cl)c1)C(=O)N(Cc1ccc(C(=O)Nc2nn[nH]n2)cc1)C1CCC(C(C)(C)C)CC1 (stereo not shown) [Example 548]")
"FALSE"
>>> cat("CC(C)(C)c1ccc(N(Cc2ccc(C(=O)Nc3nn[nH]n3)cc2)C(=O)Nc2ccc(OC(F)(F)F)cc2)cc1 [Example 374]")
"TRUE"
>>> cat("CC(C)(C)c1ccc(N(Cc2ccc(C(=O)Nc3nn[nH]n3)cc2)C(=O)Nc2cc(Br)cc(C(F)(F)F)c2)cc1 [Example 263]")
"TRUE"
>>> cat("CC(C)(C)C1CCC(N(Cc2ccc(C(=O)Nc3nn[nH]n3)cc2)C(=O)c2cc3ccccc3o2)CC1 (stereo not shown) [Example 475]")
"FALSE"
>>> cat("Cc1ccc(NC(=O)N(Cc2ccc(C(=O)NCCS(=O)(=O)O)cc2)c2ccc(C(C)(C)C)cc2)cc1S(C)(=O)=O [Example 569]")
"FALSE"
>>> cat("CC(C)N1C(=O)c2ccc(NC(=O)N(Cc3ccc(C(=O)Nc4nn[nH]n4)cc3)c3ccc(C(C)(C)C)cc3)cc2C1=O [Example 628]")
"TRUE"

Prompt line: Check if pIC50 >= 7 (inclusive). Item: CCCCN1C(=O)c2ccc(NC(=O)N(Cc3ccc(C(=O)Nc4nn[nH]n4)cc3)c3ccc(C4CCCCC4)cc3)cc2C1=O [Example 636]
Response line: TRUE

Prompt line: Is the recorded value of pIC50 equal to or greater than 7 for this compound? O=C(Nc1nn[nH]n1)c1ccc(CN(C(=O)NCc2ccccc2-c2ccccc2)c2ccc(C3CCCCC3)cc2)cc1 [Example 354]
Response line: TRUE

Prompt line: Could you tell me if the measured pIC50 of O=C(O)CCNC(=O)c1ccc(CN(C(=O)Nc2ccc(OC(F)(F)F)cc2)c2ccc(Br)cc2)cc1 [Example 430] reaches 7 or more?
Response line: FALSE

Prompt line: pIC50 >= 7 for O=C(O)CCNC(=O)c1ccc(CN(CC(c2ccccc2)c2ccccc2)C(=O)c2cc3cc(Cl)ccc3o2)cc1 [Example 563] ?
Response line: FALSE

Reference source for all entries: patent US6875760B2
